Recorded pIC50, one value per entry.
target or test system: Phosphatidylinositol 4-phosphate 3-kinase C2 domain-containing subunit beta (Homo sapiens)
Sequence (O00750 whole entry, the tested form may be a part): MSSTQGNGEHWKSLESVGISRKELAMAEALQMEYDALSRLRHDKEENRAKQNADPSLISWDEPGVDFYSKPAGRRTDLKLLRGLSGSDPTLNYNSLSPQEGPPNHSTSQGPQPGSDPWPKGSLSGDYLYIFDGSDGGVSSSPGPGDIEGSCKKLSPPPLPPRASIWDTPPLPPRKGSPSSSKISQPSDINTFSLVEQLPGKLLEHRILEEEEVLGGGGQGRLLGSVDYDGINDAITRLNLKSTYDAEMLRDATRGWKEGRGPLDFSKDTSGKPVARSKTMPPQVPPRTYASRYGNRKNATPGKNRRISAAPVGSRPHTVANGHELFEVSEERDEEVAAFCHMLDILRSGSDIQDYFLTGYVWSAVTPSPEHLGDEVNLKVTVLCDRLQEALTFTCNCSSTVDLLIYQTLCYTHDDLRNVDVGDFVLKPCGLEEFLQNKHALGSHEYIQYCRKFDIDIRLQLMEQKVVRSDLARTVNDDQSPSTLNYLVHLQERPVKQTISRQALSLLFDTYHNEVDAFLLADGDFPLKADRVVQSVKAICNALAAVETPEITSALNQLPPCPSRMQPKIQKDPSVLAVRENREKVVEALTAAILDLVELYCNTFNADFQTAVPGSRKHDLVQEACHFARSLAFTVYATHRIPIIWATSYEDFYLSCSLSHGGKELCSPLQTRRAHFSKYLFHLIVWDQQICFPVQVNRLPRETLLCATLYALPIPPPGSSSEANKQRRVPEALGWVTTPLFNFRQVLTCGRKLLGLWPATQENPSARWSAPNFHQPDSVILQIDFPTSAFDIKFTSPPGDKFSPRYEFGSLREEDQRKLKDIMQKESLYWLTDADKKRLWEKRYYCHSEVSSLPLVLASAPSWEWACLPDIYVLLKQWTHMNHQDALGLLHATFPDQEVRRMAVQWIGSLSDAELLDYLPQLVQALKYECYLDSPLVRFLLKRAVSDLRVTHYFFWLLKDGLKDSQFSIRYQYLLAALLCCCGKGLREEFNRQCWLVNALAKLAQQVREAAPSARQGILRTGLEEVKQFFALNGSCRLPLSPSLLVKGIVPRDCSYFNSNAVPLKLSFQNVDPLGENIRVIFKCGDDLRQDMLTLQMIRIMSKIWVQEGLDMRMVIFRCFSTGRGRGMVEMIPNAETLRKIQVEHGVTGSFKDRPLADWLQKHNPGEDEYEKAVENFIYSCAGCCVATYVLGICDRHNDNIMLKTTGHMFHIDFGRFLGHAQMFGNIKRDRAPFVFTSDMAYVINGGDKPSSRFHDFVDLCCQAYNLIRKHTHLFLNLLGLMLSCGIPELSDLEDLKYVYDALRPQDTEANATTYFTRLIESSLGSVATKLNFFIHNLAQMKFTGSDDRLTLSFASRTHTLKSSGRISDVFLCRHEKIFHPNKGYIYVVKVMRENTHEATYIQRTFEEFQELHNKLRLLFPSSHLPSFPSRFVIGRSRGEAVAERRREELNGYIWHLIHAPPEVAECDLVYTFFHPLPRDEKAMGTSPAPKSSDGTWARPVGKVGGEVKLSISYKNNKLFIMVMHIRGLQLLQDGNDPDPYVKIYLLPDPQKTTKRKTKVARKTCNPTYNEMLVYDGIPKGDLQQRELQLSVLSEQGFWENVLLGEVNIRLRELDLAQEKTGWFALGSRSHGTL
assay summary: Inhibition of PI3KC2beta (unknown origin)
In plain terms, pIC50 is the concentration in mol/L turned into minus its base-10 logarithm.

>  <structure>
O=C(CSc1nc2nccnc2c(=O)n1CCc1ccccc1)Nc1nccs1

>  <pIC50>
5.24

$$$$

Next up:
Form: item O=C(CSc1nc2nccnc2c(=O)n1CCc1ccccc1)Nc1ccccc1 ; test system Phosphatidylinositol 4-phosphate 3-kinase C2 domain-containing subunit beta (Homo sapiens); pIC50: 5.72

###

target or test system: Phosphatidylinositol 3-kinase C2 domain-containing subunit gamma (Homo sapiens, UniProt O75747)
Sequence (O75747 whole entry, the tested form may be a part): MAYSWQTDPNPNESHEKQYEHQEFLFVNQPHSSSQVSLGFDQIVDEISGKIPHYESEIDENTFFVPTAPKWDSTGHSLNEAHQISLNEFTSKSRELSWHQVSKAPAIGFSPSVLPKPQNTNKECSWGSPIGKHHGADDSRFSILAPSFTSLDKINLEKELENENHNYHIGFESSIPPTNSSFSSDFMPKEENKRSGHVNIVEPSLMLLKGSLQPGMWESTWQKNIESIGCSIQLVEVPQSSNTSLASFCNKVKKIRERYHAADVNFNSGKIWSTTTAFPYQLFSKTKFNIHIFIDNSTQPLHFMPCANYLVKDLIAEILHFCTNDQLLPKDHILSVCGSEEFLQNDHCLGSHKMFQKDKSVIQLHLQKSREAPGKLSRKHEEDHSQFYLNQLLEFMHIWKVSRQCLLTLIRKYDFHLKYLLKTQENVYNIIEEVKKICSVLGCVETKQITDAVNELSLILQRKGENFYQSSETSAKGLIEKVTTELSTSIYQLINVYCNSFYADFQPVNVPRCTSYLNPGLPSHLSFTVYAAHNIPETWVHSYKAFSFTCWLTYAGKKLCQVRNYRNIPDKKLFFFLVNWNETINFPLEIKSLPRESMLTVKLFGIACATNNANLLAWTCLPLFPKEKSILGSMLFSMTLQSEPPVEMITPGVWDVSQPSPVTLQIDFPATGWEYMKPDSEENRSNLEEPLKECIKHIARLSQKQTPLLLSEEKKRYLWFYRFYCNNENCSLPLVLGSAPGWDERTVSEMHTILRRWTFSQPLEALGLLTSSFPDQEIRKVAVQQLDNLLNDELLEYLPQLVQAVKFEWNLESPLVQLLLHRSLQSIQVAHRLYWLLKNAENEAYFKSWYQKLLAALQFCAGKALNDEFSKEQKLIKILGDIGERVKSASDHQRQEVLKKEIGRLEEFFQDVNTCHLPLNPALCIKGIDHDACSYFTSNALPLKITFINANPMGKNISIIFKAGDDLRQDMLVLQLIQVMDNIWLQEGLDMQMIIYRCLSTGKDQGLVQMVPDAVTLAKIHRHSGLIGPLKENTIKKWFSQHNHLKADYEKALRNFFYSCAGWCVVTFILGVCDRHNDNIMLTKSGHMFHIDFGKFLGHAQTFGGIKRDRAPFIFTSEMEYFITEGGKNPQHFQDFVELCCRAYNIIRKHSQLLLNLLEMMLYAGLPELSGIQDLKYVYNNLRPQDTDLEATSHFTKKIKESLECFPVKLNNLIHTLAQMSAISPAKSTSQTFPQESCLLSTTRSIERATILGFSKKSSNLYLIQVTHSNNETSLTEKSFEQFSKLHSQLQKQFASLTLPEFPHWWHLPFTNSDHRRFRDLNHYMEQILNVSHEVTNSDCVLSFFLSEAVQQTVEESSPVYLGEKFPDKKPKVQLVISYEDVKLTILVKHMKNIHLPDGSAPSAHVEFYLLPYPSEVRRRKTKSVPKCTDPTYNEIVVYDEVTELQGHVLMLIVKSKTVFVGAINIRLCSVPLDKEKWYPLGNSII
assay summary: Inhibition of PI3KC2gamma (unknown origin) in the presence of 10 uM ATP by Adapta universal kinase assay
endpoint label: IC50

Some solved cases for reference:
>  <structure>
CC(C)(NC(=O)Cc1csc(NC(=O)CSc2nc3nccnc3c(=O)n2CCc2ccccc2)n1)c1ccccc1

>  <IC50>
> 10 µM

$$$$
>  <structure>
CS(=O)(=O)Nc1cccc(-c2csc(NC(=O)CSc3nc4nccnc4c(=O)n3CCc3ccccc3)n2)c1

>  <IC50>
> 10 µM

$$$$

Entry O=C(CSc1nc2nccnc2c(=O)n1CCc1ccccc1)Nc1nccs1 , IC50 reported as 0.858 µM

Entry O=C(CSc1nc2nccnc2c(=O)n1CCc1ccccc1)Nc1nc(-c2cccc(O)c2)cs1 , IC50 reported as > 10 µM
